molecular target: LMP7 (Homo sapiens, UniProt P28062); construct: using MOLT-4 cell lysate as the enzyme source of LMP7; endogenous in cells; host or cells: MOLT-4 (human acute lymphoblastic leukemia cells); assay: Cytological inhibitory activity on LMP7 in MOLT-4 cells; assay type: cell-based; conditions: incubation for 2 hours with compound, read-out: Cytological activity data LMP7 Activity (MOLT-4Cell)
METRIC: IC50 (nM)
The response must be a number in nM with no trailing unit.

Reference set (5 entries):
O=C(Nc1ncc(Cl)s1)C(=O)N[C@@H](Cc1coc2ccccc12)B(O)O :: 19.5
CC1(C)[C@@H]2C[C@H]3OB([C@H](Cc4coc5ccccc45)NC(=O)C(=O)Nc4ncc(F)s4)O[C@@]3(C)[C@H]1C2 :: 9.5
Cn1cccc(NC(=O)C(=O)N[C@@H](Cc2coc3ccccc23)B2O[C@@H]3C[C@@H]4C[C@@H](C4(C)C)[C@]3(C)O2)c1=O :: 4.03
CC1(C)[C@@H]2C[C@H]3OB([C@H](Cc4coc5ccccc45)NC(=O)C(=O)Nc4ccccc4F)O[C@@]3(C)[C@H]1C2 :: 4.94
O=C(Nc1ccccn1)C(=O)N[C@@H](Cc1coc2ccccc12)B(O)O :: 3.77

May I ask what IC50 has been recorded for O=C(NCC1CCCO1)C(=O)N[C@@H](Cc1coc2ccccc12)B(O)O (stereo partly shown) ?
1.83

Field request: IC50 | item: O=C(Nc1cccc2c1OCCO2)C(=O)N[C@@H](Cc1coc2ccccc12)B(O)O
8.77
